SUBJECT OF TEST: human FASN (Homo sapiens, UniProt P49327)
Construct: purified from SKBR3 cells using procedures modified from those in Jayakumar et al; endogenous in cells; host or cells: SKBR3 cells (ATCC); endogenous FASN purified in house by ammonium sulfate precipitation and mono Q chromatography
Sequence (P49327 whole entry): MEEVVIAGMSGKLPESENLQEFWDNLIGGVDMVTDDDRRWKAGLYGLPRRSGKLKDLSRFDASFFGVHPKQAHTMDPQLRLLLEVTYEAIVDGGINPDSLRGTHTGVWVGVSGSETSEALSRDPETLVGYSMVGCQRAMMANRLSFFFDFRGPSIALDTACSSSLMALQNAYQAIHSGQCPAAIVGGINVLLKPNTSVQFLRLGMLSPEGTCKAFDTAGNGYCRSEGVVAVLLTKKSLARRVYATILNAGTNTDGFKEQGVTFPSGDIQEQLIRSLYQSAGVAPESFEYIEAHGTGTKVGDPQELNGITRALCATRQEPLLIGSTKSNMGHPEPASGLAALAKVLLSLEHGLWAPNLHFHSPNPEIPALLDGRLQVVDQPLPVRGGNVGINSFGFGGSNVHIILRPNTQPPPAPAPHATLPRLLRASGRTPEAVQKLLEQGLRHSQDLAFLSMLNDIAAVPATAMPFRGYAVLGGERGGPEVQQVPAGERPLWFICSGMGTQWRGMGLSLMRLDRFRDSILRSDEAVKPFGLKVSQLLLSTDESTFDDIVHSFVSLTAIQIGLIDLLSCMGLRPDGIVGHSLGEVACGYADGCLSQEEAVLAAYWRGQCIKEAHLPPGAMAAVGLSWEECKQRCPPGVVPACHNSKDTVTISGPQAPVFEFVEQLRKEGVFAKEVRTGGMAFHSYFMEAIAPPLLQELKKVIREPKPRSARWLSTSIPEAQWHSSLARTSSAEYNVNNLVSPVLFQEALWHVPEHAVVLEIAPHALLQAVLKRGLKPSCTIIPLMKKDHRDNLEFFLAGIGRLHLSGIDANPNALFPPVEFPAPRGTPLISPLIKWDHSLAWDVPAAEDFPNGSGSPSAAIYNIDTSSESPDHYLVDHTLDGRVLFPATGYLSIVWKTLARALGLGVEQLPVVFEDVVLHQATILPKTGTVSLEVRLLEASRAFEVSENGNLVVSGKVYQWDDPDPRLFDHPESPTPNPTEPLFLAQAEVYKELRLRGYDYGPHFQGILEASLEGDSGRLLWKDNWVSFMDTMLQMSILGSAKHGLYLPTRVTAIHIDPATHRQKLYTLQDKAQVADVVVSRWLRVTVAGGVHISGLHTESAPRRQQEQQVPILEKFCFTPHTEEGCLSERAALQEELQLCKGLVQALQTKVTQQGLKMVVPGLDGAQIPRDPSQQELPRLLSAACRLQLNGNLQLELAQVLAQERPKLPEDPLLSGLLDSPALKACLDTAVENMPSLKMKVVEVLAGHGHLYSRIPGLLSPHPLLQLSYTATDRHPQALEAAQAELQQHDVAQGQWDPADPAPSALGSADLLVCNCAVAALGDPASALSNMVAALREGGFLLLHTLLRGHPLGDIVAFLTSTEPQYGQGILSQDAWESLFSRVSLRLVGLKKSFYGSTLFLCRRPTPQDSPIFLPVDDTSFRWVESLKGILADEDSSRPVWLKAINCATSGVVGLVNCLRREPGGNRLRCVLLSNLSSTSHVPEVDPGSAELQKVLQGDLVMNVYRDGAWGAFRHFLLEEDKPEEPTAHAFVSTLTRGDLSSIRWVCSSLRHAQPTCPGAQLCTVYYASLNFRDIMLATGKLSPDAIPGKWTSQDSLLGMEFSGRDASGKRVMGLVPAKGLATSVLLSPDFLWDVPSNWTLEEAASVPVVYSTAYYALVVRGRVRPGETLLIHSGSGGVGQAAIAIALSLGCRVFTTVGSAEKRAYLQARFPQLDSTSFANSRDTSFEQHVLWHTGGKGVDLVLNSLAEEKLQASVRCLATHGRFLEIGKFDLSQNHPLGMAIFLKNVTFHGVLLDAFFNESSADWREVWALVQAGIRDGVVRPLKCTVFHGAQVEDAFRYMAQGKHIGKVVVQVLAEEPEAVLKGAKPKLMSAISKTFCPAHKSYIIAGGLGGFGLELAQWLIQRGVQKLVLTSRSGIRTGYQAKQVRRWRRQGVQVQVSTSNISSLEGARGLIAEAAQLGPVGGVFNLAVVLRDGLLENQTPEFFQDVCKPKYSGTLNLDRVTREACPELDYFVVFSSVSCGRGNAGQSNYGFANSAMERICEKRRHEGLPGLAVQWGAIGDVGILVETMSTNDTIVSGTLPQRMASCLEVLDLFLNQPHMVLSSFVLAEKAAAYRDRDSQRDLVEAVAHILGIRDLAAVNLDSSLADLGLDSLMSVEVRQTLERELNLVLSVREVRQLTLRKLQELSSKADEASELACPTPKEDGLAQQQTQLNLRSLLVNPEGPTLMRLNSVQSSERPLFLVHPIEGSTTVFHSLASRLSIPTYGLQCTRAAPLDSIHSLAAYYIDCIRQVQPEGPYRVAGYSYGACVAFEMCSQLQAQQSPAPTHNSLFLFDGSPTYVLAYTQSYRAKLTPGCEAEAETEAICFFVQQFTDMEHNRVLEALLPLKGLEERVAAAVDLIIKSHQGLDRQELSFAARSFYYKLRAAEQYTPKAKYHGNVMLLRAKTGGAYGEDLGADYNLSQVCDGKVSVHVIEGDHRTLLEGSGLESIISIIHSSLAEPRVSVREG
ASSAY SUMMARY: FASN NADPH consumption assay
Assay type: biochemical
CONDITION CONTEXT: IC50 class, FASN NADPH Consumption Assay (symbols without asterisk); human FASN purified from SKBR3 cells
Task for the reader: assign each of the following molecules its reported IC50.

For the molecule N#Cc1c(-c2ccccc2CCc2ccccc2)nnn1C(=O)N1CCCC2CCCCC21 (stereo not drawn) , what IC50 is on record? < 200 nM

// same read-out, input: `CCN(C(=O)n1nncc1-c1ccccc1)C1CCCCC1` > 1000 nM

Same for `CCN(C(=O)n1nnc(-c2ccccc2Oc2ccccc2)c1C#N)c1ccccc1` < 200 nM

Here is the next molecule: C[C@@H]1[C@@H](NC(=O)c2c(-c3ccccc3Oc3ccccc3)nnn2C(=O)N2CCCC3CCCCC32)C[C@@H]2C[C@H]1C2(C)C (stereo partly drawn) > 1000 nM

Moving on to `CCN(C(=O)n1cc(-c2ccccc2Cl)nn1)c1ccccc1` 500 to 1000 nM

Moving on to `CCN(C(=O)n1nnc(-c2c(Cl)cccc2Cl)c1C#N)c1ccccc1` < 200 nM
